- RUN DESCRIPTION: PK in systemic plasma of GK rats after repeated oral administration (day 35)
- Type: in vivo, rat
- CONDITION CONTEXT: male, GK, rat, plasma, po, 33.3 mg/kg, GK rats, systemic plasma, day 35, oral BBR+TB-2 (66.7+33.3 mg/kg); mean ± SE, n = 8; read-out: T1/2 (converted)
REPORTED METRIC: half-life (h)

SMILES REPRESENTATION: COc1ccc2cc3[n+](cc2c1O)CCc1cc2c(cc1-3)OCO2
REPORTED METRIC: half-life
UNIT ANNOTATION: h
READING: 23.9
--
SMILES REPRESENTATION: COc1ccc2cc3[n+](cc2c1OC)CCc1cc2c(cc1-3)OCO2
REPORTED METRIC: half-life
UNIT ANNOTATION: h
READING: 9.3

Values compiled from paper PMC6353801.
